test system: Panc10.05-G12D; assay: Viability assay (CellTiterBlue, 72 hr) Panc10.05; type: cell-based; conditions: Homo sapiens, Panc1005, GI50, CellTiterBlue, Panc10.05 K-Ras G12D, read-out: 72 hr Cell Viability Panc10.05 (G12D)
pIC50: −log10 of the molar value.
Below, each entry is listed alongside its reported pIC50.
quantity kind: pIC50

* Cc1nc(C)c(C(=O)Nc2nc(-c3ccc4c(c3)CCC(=O)N4CC3CCOC3)cs2)o1 (centres unmarked) [Compound 67] | 5.70
* Cc1nc(C2CCOC2)oc1C(=O)Nc1nc(-c2ccc3c(c2)CCC(=O)N3)cs1 (centres unmarked) [Compound 10] | 5.70
* COCCN1C(=O)CCc2cc(-c3csc(NC(=O)c4c(C)nn(C(C)C)c4C)n3)ccc21 [Compound 118] | 6.07
* Cc1nc(C(C)C)oc1C(=O)Nc1nc(-c2ccc3c(c2)CCC(=O)N3)cs1 [Compound 7] | 5.70
* Cc1nc(C2CCOC2O)sc1C(=O)Nc1nc(-c2ccc3c(c2)CCC(=O)N3Cc2cccnc2)cs1 (centres unmarked) [Compound 71] | 5.22
